# assay-text: Biodistribution in NMRI mouse spleen/pancreas at 3.7 MBq/mL, iv after 60 mins by gamma counting
# Assay type: ADME, organism-based
# assay-setup: in vivo, 1 h
quantity-kind: Drug uptake (%ID)

compound	Drug uptake (%ID)
[11CH3]Nc1ccc(-c2nc3ccc(O)cc3s2)cc1 [PITTSBURGH COMPOUND B]	0.1

I. COc1ccc2nc(-c3ccc([18F])cc3)sc2c1
II. Oc1ccc2nc(-c3ccc([18F])cc3)sc2c1
III. Cc1ccc2nc(-c3ccc([18F])cc3)sc2c1
Ask: Please order the records by their reported Drug uptake, lowest number first. To answer, write out the labels according to the requested order.
Reply: III, I, II
(III: 0.1 %ID, I: 0.2 %ID, II: 0.5 %ID)

----------
# Test system: Intestine
# assay-text: Biodistribution in NMRI mouse intestine at 3.7 MBq/mL, iv after 2 mins by gamma counting
# Assay type: ADME, organism-based
# assay-setup: in vivo
quantity-kind: Drug uptake (%ID)

[11CH3]Nc1ccc(-c2nc3ccc(O)cc3s2)cc1 12
COc1ccc2nc(-c3ccc([18F])cc3)sc2c1 8.4
Oc1ccc2nc(-c3ccc([18F])cc3)sc2c1 7.1
Cc1ccc2nc(-c3ccc([18F])cc3)sc2c1 8.9

----------
# Test system: Blood
# assay-text: Biodistribution in NMRI mouse blood assessed per gram of tissue at 3.7 MBq/mL, iv after 60 mins by gamma counting
# Type: ADME, organism-based
# assay-setup: in vivo, 1 h
quantity-kind: Drug uptake (% ID/g)

molecule	Drug uptake, % ID/g
Oc1ccc2nc(-c3ccc([18F])cc3)sc2c1	1.3
Cc1ccc2nc(-c3ccc([18F])cc3)sc2c1	1.1

1. [11CH3]Nc1ccc(-c2nc3ccc(O)cc3s2)cc1 [PITTSBURGH COMPOUND B]
2. COc1ccc2nc(-c3ccc([18F])cc3)sc2c1
Ask: I'm curious whether 1 or 2 has the smaller Drug uptake number. Which is it? // respond with label for picked entry
Reply: 1
(1: 1.1 % ID/g, 2: 1.7 % ID/g)

----------
# System: Blood
# assay-text: Biodistribution in NMRI mouse blood at 3.7 MBq/mL, iv after 60 mins by gamma counting
# Assay type: ADME, organism-based
# assay-setup: in vivo, 1 h
quantity-kind: Drug uptake (%ID)

Recorded results for 2 compounds are shown here.
Oc1ccc2nc(-c3ccc([18F])cc3)sc2c1 3.3
Cc1ccc2nc(-c3ccc([18F])cc3)sc2c1 2.8

a. [11CH3]Nc1ccc(-c2nc3ccc(O)cc3s2)cc1
b. COc1ccc2nc(-c3ccc([18F])cc3)sc2c1
Ask: // max by Drug uptake over [ a , b ] // respond with label for picked entry
Reply: b
(b: 4.4 %ID, a: 2.7 %ID)

----------
# Test system: Lung
# assay-text: Biodistribution in NMRI mouse lung at 3.7 MBq/mL, iv after 60 mins by gamma counting
# Format: ADME, organism-based
# assay-setup: in vivo, 1 h
quantity-kind: Drug uptake (%ID)

Recorded results for 2 molecules are shown here.
COc1ccc2nc(-c3ccc([18F])cc3)sc2c1 0.6
[11CH3]Nc1ccc(-c2nc3ccc(O)cc3s2)cc1 0.3

1. Cc1ccc2nc(-c3ccc([18F])cc3)sc2c1
2. Oc1ccc2nc(-c3ccc([18F])cc3)sc2c1
Ask: // max by Drug uptake over [ 1 , 2 ] // respond with label for picked entry
Reply: 2
(2: 1.5 %ID, 1: 0.3 %ID)

----------
# System: Blood
# assay-text: Biodistribution in NMRI mouse blood assessed per gram of tissue at 3.7 MBq/mL, iv after 2 mins by gamma counting
# Assay type: ADME, organism-based
# assay-setup: in vivo
quantity-kind: Drug uptake (% ID/g)

Recorded results for 2 compounds are shown here.
compound	Drug uptake (% ID/g)
COc1ccc2nc(-c3ccc([18F])cc3)sc2c1	2
[11CH3]Nc1ccc(-c2nc3ccc(O)cc3s2)cc1 [PITTSBURGH COMPOUND B]	3.1

a. Oc1ccc2nc(-c3ccc([18F])cc3)sc2c1
b. Cc1ccc2nc(-c3ccc([18F])cc3)sc2c1
Ask: I'm curious whether a or b has the smaller Drug uptake number. Which is it? // respond with label for picked entry
Reply: b

----------
# Tested on: Heart
# assay-text: Biodistribution in NMRI mouse heart at 3.7 MBq/mL, iv after 60 mins by gamma counting
# Assay type: ADME, organism-based
# assay-setup: in vivo, 1 h
quantity-kind: Drug uptake (%ID)

Recorded results for 2 compounds are shown here.
COc1ccc2nc(-c3ccc([18F])cc3)sc2c1 0.1
Cc1ccc2nc(-c3ccc([18F])cc3)sc2c1 0.1

a. Oc1ccc2nc(-c3ccc([18F])cc3)sc2c1
b. [11CH3]Nc1ccc(-c2nc3ccc(O)cc3s2)cc1
Ask: // max by Drug uptake over [ a , b ] // respond with label for picked entry
Reply: b

----------
# assay-text: Biodistribution in NMRI mouse cerebrum at 3.7 MBq/mL, iv after 60 mins by gamma counting
# Format: ADME, organism-based
# assay-setup: in vivo, 1 h
quantity-kind: Drug uptake (%ID)

Recorded results for 2 compounds are shown here.
Oc1ccc2nc(-c3ccc([18F])cc3)sc2c1 0.16
COc1ccc2nc(-c3ccc([18F])cc3)sc2c1 0.13

1. [11CH3]Nc1ccc(-c2nc3ccc(O)cc3s2)cc1
2. Cc1ccc2nc(-c3ccc([18F])cc3)sc2c1
Ask: I'm curious whether 1 or 2 has the smaller Drug uptake number. Which is it? // respond with label for picked entry
Reply: 2
(2: 0.07 %ID, 1: 0.18 %ID)

----------
# assay-text: Biodistribution in NMRI mouse cerebrum assessed per gram of tissue at 3.7 MBq/mL, iv after 2 mins by gamma counting
# Type: ADME, organism-based
# assay-setup: in vivo
quantity-kind: Drug uptake (% ID/g)

COc1ccc2nc(-c3ccc([18F])cc3)sc2c1 5.1
[11CH3]Nc1ccc(-c2nc3ccc(O)cc3s2)cc1 3.6
Cc1ccc2nc(-c3ccc([18F])cc3)sc2c1 5.33
Oc1ccc2nc(-c3ccc([18F])cc3)sc2c1 4.7

----------
# Tested on: Kidney
# assay-text: Biodistribution in NMRI mouse kidney at 3.7 MBq/mL, iv after 60 mins by gamma counting
# Assay type: ADME, organism-based
# assay-setup: in vivo, 1 h
quantity-kind: Drug uptake (%ID)

Oc1ccc2nc(-c3ccc([18F])cc3)sc2c1 5.9

1. [11CH3]Nc1ccc(-c2nc3ccc(O)cc3s2)cc1
2. Cc1ccc2nc(-c3ccc([18F])cc3)sc2c1
3. COc1ccc2nc(-c3ccc([18F])cc3)sc2c1
Ask: Please order the records by their reported Drug uptake, lowest number first. To answer, write out the labels according to the requested order.
Reply: 2, 1, 3
(2: 2.3 %ID, 1: 4.8 %ID, 3: 9.4 %ID)

----------
# Test system: Liver
# assay-text: Biodistribution in NMRI mouse liver at 3.7 MBq/mL, iv after 60 mins by gamma counting
# Assay type: ADME, organism-based
# assay-setup: in vivo, 1 h
quantity-kind: Drug uptake (%ID)

Recorded results for 2 compounds are shown here.
compound	Drug uptake / %ID
Cc1ccc2nc(-c3ccc([18F])cc3)sc2c1	51.8
COc1ccc2nc(-c3ccc([18F])cc3)sc2c1	13.6

a. [11CH3]Nc1ccc(-c2nc3ccc(O)cc3s2)cc1 [PITTSBURGH COMPOUND B]
b. Oc1ccc2nc(-c3ccc([18F])cc3)sc2c1
Ask: // max by Drug uptake over [ a , b ] // respond with label for picked entry
Reply: b
(b: 24.6 %ID, a: 9.8 %ID)

----------
# assay-text: Biodistribution in NMRI mouse cerebrum assessed per gram of tissue at 3.7 MBq/mL, iv after 60 mins by gamma counting
# Format: ADME, organism-based
# assay-setup: in vivo, 1 h
quantity-kind: Drug uptake (% ID/g)

Recorded results for 2 molecules are shown here.
COc1ccc2nc(-c3ccc([18F])cc3)sc2c1 0.43
Oc1ccc2nc(-c3ccc([18F])cc3)sc2c1 0.57

a. [11CH3]Nc1ccc(-c2nc3ccc(O)cc3s2)cc1
b. Cc1ccc2nc(-c3ccc([18F])cc3)sc2c1
Ask: I'm curious whether a or b has the smaller Drug uptake number. Which is it? // respond with label for picked entry
Reply: b
(b: 0.27 % ID/g, a: 0.6 % ID/g)

----------
# Tested on: Liver
# assay-text: Biodistribution in NMRI mouse liver assessed per gram of tissue at 3.7 MBq/mL, iv after 2 mins by gamma counting
# Assay type: ADME, organism-based
# assay-setup: in vivo
quantity-kind: Drug uptake (% ID/g)

Cc1ccc2nc(-c3ccc([18F])cc3)sc2c1 12
Oc1ccc2nc(-c3ccc([18F])cc3)sc2c1 13.3
[11CH3]Nc1ccc(-c2nc3ccc(O)cc3s2)cc1 7.9
COc1ccc2nc(-c3ccc([18F])cc3)sc2c1 9.9

----------
# Tested on: Cerebellum
# assay-text: Biodistribution in NMRI mouse cerebellum at 3.7 MBq/mL, iv after 60 mins by gamma counting
# Format: ADME, organism-based
# assay-setup: in vivo, 1 h
quantity-kind: Drug uptake (%ID)

Recorded results for 2 molecules are shown here.
molecule	result-units	Drug uptake
COc1ccc2nc(-c3ccc([18F])cc3)sc2c1	%ID	0.07
[11CH3]Nc1ccc(-c2nc3ccc(O)cc3s2)cc1 [PITTSBURGH COMPOUND B]	%ID	0.03

a. Cc1ccc2nc(-c3ccc([18F])cc3)sc2c1
b. Oc1ccc2nc(-c3ccc([18F])cc3)sc2c1
Ask: I'm curious whether a or b has the smaller Drug uptake number. Which is it? // respond with label for picked entry
Reply: a
